B1: Syntaxin-binding protein 4, residues 493 to 538; numbered along this chain, Q6ZWJ1 (parent)
chain: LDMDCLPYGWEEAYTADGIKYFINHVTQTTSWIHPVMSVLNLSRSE

Variants of: B1
Test: abundance fitness (aPCA) (normalised: wild type 0, dead -1); higher = more abundant; growth selection in yeast, the domain comes from the species named
Conditions: Homo sapiens
abundance fitness vs -0.6: at or above is Condition met, below is Condition not met.

Some solved entries appear below for comparison.
# CHANGES, DISCRETE LABEL
data = [
    ("Y8E", "Condition met"),
    ("A13R", "Condition met"),
    ("Y14H", "Condition met"),
    ("S43W", "Condition not met"),
]

Problem: Test whether the variant `S38E` records abundance fitness of -0.6 or higher.
Solution: Condition not met

Problem: Would you say `A13C` shows abundance fitness at minimum -0.6?
Solution: Condition not met

Problem: Answer whether abundance fitness of `I23A` is greater than or equal to -0.6.
Solution: Condition not met

Data provenance: the Human Domainome abundance scans (Beltran et al. 2025)
